Exercise: state measured composite z-score for each of the compounds provided.
tested on: XIP peptide (Xip251-270) binding; test: small-molecule binders of XIP peptide, primary screen, biochemical, small-molecule microarray, fluorescence 635/667 nm, 0.1 µg/mL protein (AID 1182); conditions: fluorescent protein binding, 635 nm, higher = more signal, called active from +8 up or from −8 down
Activity calls are given as the source filed them.

compound	composite z-score
CO[C@H]1O[C@H](CO)[C@@H](OC(=O)c2ccc(Br)cc2)[C@@H]2OC(=O)[C@H](Cc3ccccc3)C/C=C/C[C@@H](Cc3ccccc3)C(=O)O[C@@H]12	-0.161 (inactive)
CCCC=C(CCC)[C@@H](NS(=O)(=O)c1cccc2cccnc12)c1ccc(-c2ccccc2)cc1	-0.356 (inactive)
CC(C)=CCCC(C)=CC(O)C1C=CC2C(=O)N(c3ccccc3)C(=O)C2N1Nc1ccccc1F (stereo unspecified)	0.0917 (inactive)

I have 3 compounds here; please give me composite z-score for each one.
1. COc1ccc(CCNC(=O)[C@@]2(Cc3ccccc3I)c3ccccc3C(=O)N(Cc3ccccc3Cl)[C@H]2c2ccc(CO)cc2)cc1
2. COC(=O)C(CC#Cc1ccc2c(c1)[C@]1(C(=O)N2)[C@H](C(=O)Nc2nc3ccccc3s2)[C@H]2C(=O)O[C@H](c3ccccc3)[C@H](c3ccccc3)N2[C@@H]1c1ccc(OCCO)cc1)C(=O)OC
3. COCCOC(=O)N1C(=O)[C@@]2(c3cc(C#CCNC(N)=O)ccc31)[C@H](c1ccc(O)cc1)N1[C@H](c3ccccc3)[C@H](c3ccccc3)OC(=O)[C@H]1[C@@H]2C(=O)N1CCN(c2ncccn2)CC1

A:
0.71 (inactive)
3.13 (inactive)
0.237 (inactive)

====

target: Neurogenic locus notch homolog protein 3 (Homo sapiens); assay: NOTCH3 binders on small-molecule microarray, primary screen, biochemical, 635/667 nm fluorescence (AID 1096); details: NOTCH3 binding, 635 nm fluorescence, higher = more signal
Exercise: state measured composite z-score for each of the compounds provided.
Give bare numbers.

compound	composite z-score
C=CCNC(=O)[C@@H]1[C@H]2C(=O)O[C@H](c3ccccc3)[C@H](c3ccccc3)N2[C@H](c2ccc(O)cc2)[C@@]12C(=O)N(C(=O)OCCOC)c1ccc(C#CCCO)cc12	0.52

I have 5 compounds here; please give me composite z-score for each one.
1. CC(=O)N1CC(C(O)C2C=CC3C(=O)NC(=O)C3N2Nc2ccc(Cl)cc2Cl)c2ccccc21 (stereo not drawn)
2. O=C1OCC=C[C@H]2OC34C=CCN(c5ccc6ccccc6c5)C(=O)[C@H]3N(CCCCCO)C(=O)[C@@H]4[C@@H]12 (stereo partly drawn)
3. CCCNC(=O)[C@@]1(Sc2ccc(C)cc2)CC(=O)N(C(C)C)[C@@H]1c1ccc(CO)cc1I
4. CC1CC/C=C\[C@H]2OC34C=CCN(CCN5CCOCC5)C(=O)[C@H]3N(C(C)CO)C(=O)[C@@H]4C2C(=O)O1 (stereo partly drawn)
5. CC(C)[C@H]1NC(=O)[C@@]23C(=O)N[C@@H](Cc4ccccc4)C2[C@H](C)[C@@]2(C)O[C@H]2C3/C=C/C/C=C\CNC(=O)[C@H](Cc2ccccc2)NC1=O (stereo partly drawn)

A:
1. 0.91
2. -1.04
3. -1.2
4. 0.21
5. 1.08

I have 6 compounds here; please give me composite z-score for each one.
1. C[C@@H]1ON(c2ccc(I)cc2)[C@H](c2ccc(OC(=O)OC(C)(C)C)cc2)[C@H]1C(=O)N1C(=O)OC[C@H]1Cc1ccccc1
2. COc1ccc([Si](C)(C)[C@H]2[C@H](CCO)O[C@@]3(C(=O)N(Cc4ccc(N5C(=O)c6ccccc6Oc6ccccc65)cc4)c4ccccc43)[C@@H]2C)cc1
3. COCCOC(=O)N1C(=O)[C@@]2(c3cc(C#CCC(C(=O)OC)C(=O)OC)ccc31)[C@H](C(=O)NC[C@H](O)c1ccccc1)[C@H]1C(=O)O[C@H](c3ccccc3)[C@H](c3ccccc3)N1[C@@H]2c1ccc(O)cc1
4. C=C[C@@H](OC)[C@H](OC(=O)Nc1ccc(OC)cc1)c1ccc(OC)c(O)c1
5. COCCOC(=O)N1C(=O)[C@@]2(c3cc(C#CCCO)ccc31)[C@H](C(N)=O)[C@H]1C(=O)O[C@H](c3ccccc3)[C@H](c3ccccc3)N1[C@@H]2c1ccc(OCCO)cc1
6. COc1ccc(C(O)C2C=CC3C(=O)N(c4ccccc4)C(=O)C3N2Nc2ccccc2)cc1 (stereo not drawn)

A:
1: 1.02; 2: -0.532; 3: 0.687; 4: -0.449; 5: 0.992; 6: 1.05

====

target: Albumin (Bos taurus); assay: bovine serum albumin binders on microarray, profiling panel, artefact control for SMM control protein annotation, biochemical, small-molecule microarray, Alexa647 label, 635/667 nm fluorescence (AID 1118); settings: BSA-A647 binding, fluorescence 635 nm, higher = more signal;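 further: score merges 667 nm emission intensity and signal-to-noise per printed compound spot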
Everything with composite z-score lower than 0.6 is False; everything else, including exactly 0.6, is True.

compound	group
COc1cc(NN2C(C(O)c3ccccc3)C=CC3C(=O)N(C)C(=O)C32)cc(OC)c1OC (stereo unspecified)	False

Q: Please check the record CO[C@H]1O[C@H](CO)[C@@H](OC(=O)CCc2ccccc2)[C@H](OC(=O)c2cc3ccccc3[nH]2)[C@H]1OC(=O)c1cc2ccccc2[nH]1 and state if its composite z-score is at or above 0.6.
A: True

Q: Please check the record CN1C(=O)C2C=CC(C(O)c3cc(C(F)(F)F)cc(C(F)(F)F)c3)N(NC(=O)OC(C)(C)C)C2C1=O (stereo unspecified) and state if its composite z-score is at or above 0.6.
A: True

Q: Please check the record Cc1cccc([C@H]2C[C@H]3C(Br)=C[C@@H]2C(=O)[C@]32CO2)c1 and state if its composite z-score is at or above 0.6.
A: False

====

Exercise: state measured composite z-score for each of the compounds provided.
system: XIP peptide (Xip251-270) binding; test: small-molecule binders of XIP peptide, primary screen, biochemical, small-molecule microarray, fluorescence 635/667 nm, 0.1 µg/mL protein (AID 1182); conditions: fluorescent protein binding, 635 nm, higher = more signal, called active from +8 up or from −8 down
Numbers only.

I have 6 compounds here; please give me composite z-score for each one.
1. C=C[C@@H](OC)[C@H](OC(=O)Nc1ccc(SC)cc1)c1ccc(OCCO)cc1
2. C=CCC(OC(C)=O)[C@@H]1[C@@H](N(Cc2cccc3ccccc23)C(=O)c2cccc3ccccc23)c2cc(OCCCO)ccc2N1C(=O)c1ccc2ccccc2c1 (stereo not given in full)
3. CCOC(=O)C=Cc1ccccc1O
4. Cc1ccc(S[C@]2(C(=O)NCC(C)C)CC(=O)N(C3Cc4ccccc4C3)[C@@H]2c2ccc(CO)cc2I)cc1
5. Cc1cccc([C@H]2C[C@H]3C(Br)=C[C@@H]2C(=O)[C@]32CO2)c1
6. COC(=O)C(CC#Cc1ccc2c(c1)[C@]1(C(=O)N2)[C@H](c2ccc(OCCO)cc2)N2[C@H](c3ccccc3)[C@H](c3ccccc3)OC(=O)[C@H]2[C@@H]1C(=O)N1CCN(c2ncccn2)CC1)C(=O)OC

A:
-0.302
0.25
1.39
-0.238
-0.409
0.398

I have 7 compounds here; please give me composite z-score for each one.
1. CC(C)[C@H]1NC(=O)[C@@]23C(=O)N[C@@H](Cc4ccccc4)C2[C@H](C)[C@@]2(C)O[C@H]2C3/C=C/CCC/C=C/CNC(=O)[C@H](Cc2ccccc2)NC1=O (stereo not given in full)
2. CCOC(=O)C=Cc1cc(F)ccc1O
3. CC(=O)NCCCC[C@@H]1NC(=O)[C@H]2C[C@@H](C(=O)NCCCCCNC(=O)CS)[C@@H](c3cccc(OCCO)c3)N2C1=O
4. COCCCNC(=O)[C@@]1(Sc2ccc(C)cc2)CC(=O)N(Cc2ccccc2Cl)[C@@H]1c1ccc(CO)cc1I
5. COc1ccc(NC(=O)O[C@H]2[C@@H]3OC(=O)[C@H](Cc4cccc(Br)c4)C/C=C/C[C@@H](Cc4cccc(Br)c4)C(=O)O[C@H]3[C@@H](OC)O[C@@H]2CO)cc1
6. COC(=O)C(CC#Cc1ccc2c(c1)[C@]1(C(=O)N2)[C@H](c2ccc(O)cc2)N2[C@H](c3ccccc3)[C@H](c3ccccc3)OC(=O)[C@H]2[C@@H]1C(=O)N1CCCCCCC1)C(=O)OC
7. CCCNC(=O)[C@@]1(C)c2ccccc2C(=O)N(Cc2ccccc2)[C@H]1c1ccc(CO)cc1

A:
0.621
0.198
4.01
-0.517
1.25
0.225
0.952

I have 5 compounds here; please give me composite z-score for each one.
1. C=C(CCCC)/C(=C/C[C@H](OC(C)=O)c1ccc(OCCO)cc1)c1cc(C(=O)OC)ccc1OC
2. O=C1C2C=CC(C(O)c3cccc(O)c3)N(Nc3ccccc3)C2C(=O)N1c1ccccc1 (stereo not given)
3. COc1ccc(C(O)C2C=CC3C(=O)N(c4ccccc4)C(=O)C3N2Nc2ccc(C(C)C)cc2)c2ccccc12 (stereo not given)
4. NC(=O)NCC#Cc1ccc2c(c1)[C@]1(C(=O)N2)[C@H](C(=O)N2CCN(c3ncccn3)CC2)[C@H]2C(=O)O[C@H](c3ccccc3)[C@H](c3ccccc3)N2[C@@H]1c1ccc(OCCO)cc1
5. Cc1ccc(S[C@]2(C(=O)NC(C)C)CC(=O)N(C(C)C)[C@@H]2c2ccc(CO)cc2I)cc1

A:
-0.124
-0.234
0.886
-0.134
0.317

I have 2 compounds here; please give me composite z-score for each one.
1. C=CCN1C(=O)[C@]2(O[C@H](CCO)[C@@H]([Si](C)(C)c3ccc(OC)cc3)[C@@H]2C)c2cc(N3C(=O)COc4ccccc43)ccc21
2. COCCOC(=O)N1C(=O)[C@@]2(c3cc(C#Cc4ccc(OC)cc4)ccc31)[C@H](C(=O)NC[C@H](O)c1ccccc1)[C@H]1C(=O)O[C@H](c3ccccc3)[C@H](c3ccccc3)N1[C@@H]2c1ccc(OCCO)cc1

A:
[0.879, 0.271]
